TARGET_UNDER_TEST: T1, κ1-78/δ70-372 chimeric opioid receptor (mouse)
T1 chain: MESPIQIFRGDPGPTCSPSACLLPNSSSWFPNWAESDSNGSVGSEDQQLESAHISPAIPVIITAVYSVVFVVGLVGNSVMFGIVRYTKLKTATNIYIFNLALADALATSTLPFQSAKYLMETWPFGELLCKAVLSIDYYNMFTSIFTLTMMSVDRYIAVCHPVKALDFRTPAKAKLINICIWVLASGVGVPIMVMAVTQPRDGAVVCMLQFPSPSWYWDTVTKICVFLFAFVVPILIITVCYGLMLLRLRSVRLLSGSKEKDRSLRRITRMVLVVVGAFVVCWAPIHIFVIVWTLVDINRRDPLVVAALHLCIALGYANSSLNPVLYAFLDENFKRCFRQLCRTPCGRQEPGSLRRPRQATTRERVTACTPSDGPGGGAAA
ASSAY_TEXT: competition vs [3H]DPDPE, COS-7 membranes
Non-standard residues stand in square brackets, D forms with d. No end group written: not given here.
ENDPOINT_NAME: pIC50
When answering, recall that pIC50 equals minus log10 of the concentration in mol/L, and write that number alone.

Dear colleague, I am looking for the recorded pIC50 of the following binder: Y[dS]GFLT [[D-Ser2, Leu5] enkephalin-Thr6 (DSLET)]
8.70
